The values you see were collected from PubChem BioAssay AID1053197.

# subject of test: Sialate O-acetylesterase (Homo sapiens)
# procedure summary: blockers of sialate O-acetylesterase activity-probe labeling – biochemical, fluorescence polarization, FP-Rh probe, 1536-well HTS, primary screen (AID 1053197)
# condition context: SIAE FP-Rh probe binding, at 9.66 µM
Among all 370,000 compounds or so, about 2,600 (0.7%) were called active.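 Rule for the calls: active = inhibition above a cutoff: mean of compounds within the control limits plus 3 SD of those (cut at about 17% in these data); inactive = the rest.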 The full list was thinned out, with actives kept by preference.
Possible outcomes: active, inactive

molecule: CNS(=O)(=O)c1ccc(NC(=O)Nc2ccc3c(c2)OCO3)cc1
class label: inactive
--
molecule: CC(=O)Nc1ccc(NC(=O)C(NS(=O)(=O)c2ccc3c(c2)OCCO3)C(C)C)cc1 (stereo unspecified)
class label: inactive
--
molecule: CC(=N\NC(=O)c1cc(Br)ccc1O)/C(=N/O)C(=O)Nc1ccccc1
class label: inactive
--
molecule: CCC(=O)c1c(CC)c2n3c1=CC[C@H]3CC(Br)C=2 (stereo partly specified)
class label: inactive
--
molecule: Cc1ccccc1NC(=O)Cn1nnc(-c2ccccc2F)n1
class label: inactive
--
molecule: CN(C)Cc1cn(-c2ccc(-c3noc4c3C(=O)N(CC(=O)N3CCOCC3)CC4)cc2)nn1
class label: inactive
--
molecule: N#Cc1ccccc1OC[C@@H](O)CN1CCC(C(O)(c2ccccc2)c2ccccc2)CC1
class label: inactive
--
molecule: COc1ccc(N2CCN(CCNS(=O)(=O)c3ccc([N+](=O)[O-])cc3)CC2)cc1
class label: inactive
--
molecule: Cc1ccc(NC(=O)[C@H](Cc2ccccc2)NC(=O)CC[C@H]2O[C@@H](n3ccc(=O)[nH]c3=O)[C@H](O)[C@@H]2O)cc1C
class label: inactive
--
molecule: CCCCC(CC)CNC(=O)C(=O)C1C(=O)Nc2ccccc21 (stereo unspecified)
class label: inactive
--
molecule: CCOC(=O)CC1=CC(=O)Nc2ccccc2N1
class label: inactive
--
molecule: CCN(CC)C(=O)CC[C@@H]1CC[C@]2(CCCN(S(=O)(=O)C3CCCCC3)C2)O1
class label: inactive
--
molecule: C=C1C(C(C)C)N(C)C2=NC(c3ccccc3)CC(=O)N12 (stereo unspecified)
class label: inactive
--
molecule: O=C(CC[C@H]1O[C@@H](n2ccc(=O)[nH]c2=O)[C@H](O)[C@@H]1O)N[C@H](Cc1ccccc1)C(=O)NCCCN1CCCC1=O
class label: active
--
molecule: Oc1ccc(/C=C/c2c(F)cccc2F)c2cccnc12
class label: inactive
--
molecule: Cc1nc(-c2ccc(Cl)cc2)sc1C1(C)CC(c2ccc(Br)cc2)=NO1 (stereo unspecified)
class label: inactive
--
molecule: COc1ccc(-c2ccc3nnc(SCC(=O)Nc4ccc(NC(C)=O)cc4)n3n2)cc1
class label: inactive
--
molecule: Cc1nc(-c2ccc(Cl)cc2)sc1C(=O)NN
class label: active
--
molecule: CCOc1ccc(Cn2c(SCCCCC#N)nc3c2c(=O)n(C)c(=O)n3C)cc1OCC
class label: active
--
molecule: CCCCCCN1CCS(=O)(=O)N(Cc2ccc(C(F)(F)F)cc2)C(C(=O)OC)C1 (stereo unspecified)
class label: inactive
--
molecule: COc1cc(OC)cc(C(=O)NCC(=O)N2CCCCCCC2)c1
class label: inactive
--
molecule: CN(c1ccc(O)cc1)c1nc(-c2cccnc2)cs1
class label: inactive
--
molecule: COc1ccc(C#CCNCc2ccc(OC)cc2OC)cc1
class label: inactive
--
molecule: COC(=O)C12C=C3CC(c4ccccc4)=C3C(=O)N1Cc1[nH]c3ccccc3c1C2 (stereo unspecified)
class label: inactive
--
molecule: O=C(CSc1nc2sc3c(c2c(=O)n1-c1ccccc1)CCCC3)NN=Cc1ccc(OCc2ccccc2)cc1
class label: inactive
--
molecule: COC(=O)[C@]12C[C@H](CC(=O)NCC34CC5CC(CC(C5)C3)C4)C(=O)N(Cc3ccc(Cl)cc3Cl)C1=C[C@H](COCc1ccccc1)O[C@@H]2C
class label: inactive
--
molecule: COc1ccc(-c2csc(Nc3ccc(O)cc3)n2)cc1
class label: active
--
molecule: COc1ccc(C2Nc3ccccc3C(=O)N2Cc2cccs2)cc1COc1c(C)cccc1C (stereo unspecified)
class label: inactive
--
molecule: CCOc1ccc2nc(NC(=O)CSc3nc4c(c(=O)n(C)c(=O)n4C)n3CC)sc2c1
class label: inactive
--
molecule: O=[N+]([O-])c1ccc(N2CCN(c3ccc(F)cc3)CC2)cn1
class label: inactive
--
molecule: Cc1cc(C)nc(NC(=S)N2CCN(c3ccc(C(F)(F)F)cn3)CC2)c1
class label: inactive
--
molecule: CCOC(=O)[C@@]12CCC3=C1N(CCC3)C(=O)[C@H](CC(=O)N1CCN(C(=O)c3ccco3)CC1)C2
class label: inactive
--
molecule: CN1c2ccc(C=O)c3c(C=O)ccc(c23)N(C)C1(C)C
class label: active
--
molecule: O=C(c1c[nH]c2ccccc12)N1CCC(Oc2cccnc2)CC1
class label: inactive
--
molecule: C=CCN1[C@H](CC(C)C)COc2cccc(N3CCCC3)c2S1(=O)=O
class label: inactive
--
molecule: Cc1ccc(C)c(NC(=O)CCS(=O)(=O)c2ccccc2)c1
class label: inactive
--
molecule: Cc1cc(C)cc(C(=O)NCC(=O)OCC(=O)N2CCCCC2)c1
class label: inactive
--
molecule: CC(C)(C)NC(=O)C(c1cccnc1)N(C(=O)c1cnco1)c1ccc(C(C)(C)C)cc1 (stereo unspecified)
class label: inactive
--
molecule: C=CCN1C(=O)[C@H](CC(=O)N2CCN(C(=O)OCC)CC2)[C@@]2(C(=O)OCC)CCCC=C12
class label: inactive
--
molecule: CC(C)(C)OC(=O)NCCc1ccccc1/C=C/S(=O)(=O)NCc1ccc(F)cc1
class label: inactive
--
molecule: Cc1nc(N2CCOCC2)sc1C(=O)NN
class label: inactive
